Each entry below carries its reported melting point.
Result Type: melting point

>>> result_value("CC(C)=CCc1c(O)ccc2c1OC13C(=CC4CC1C(C)(C)OC3(CC=C(C)C)C4=O)C2=O (stereo not shown)")
"158 to 160 °C"
>>> result_value("CC(C)=CCC12OC(C)(C)C3CC(C=C4C(=O)c5cccc(O)c5OC431)C2=O (stereo not shown)")
"203 to 205 °C"
>>> result_value("CC(C)=CCc1cc2c(cc1O)C(=O)C1=CC3C4CC1(O2)C(=O)C3(CC=C(C)C)OC4(C)C (stereo not shown)")
"148 to 150 °C"
>>> result_value("CC(C)=CCC12OC(C)(C)C3CC(C=C4C(=O)c5cc(O)ccc5OC431)C2=O (stereo not shown)")
"158 to 159 °C"
>>> result_value("CC(C)=CCC12OC(C)(C)C3CC(C=C4C(=O)c5ccc(O)cc5OC431)C2=O (stereo not shown)")
"197 to 199 °C"
>>> result_value("CC(C)=CCc1ccc2c(c1O)OC13C(=CC4CC1C(C)(C)OC3(CC=C(C)C)C4=O)C2=O (stereo not shown)")
"157 to 158 °C"
>>> result_value("CC(C)=CCc1c(O)ccc2c1C(=O)C1=CC3CC4C(C)(C)OC(CC=C(C)C)(C3=O)C14O2 (stereo not shown)")
"138 to 139 °C"
